Reference source for all entries: PubChem BioAssay (EPA / NIEHS)

assay: APR_HepG2_p53Act_72hr: Apredica 72-hour HepG2 Assay for p53 Activation (AID 2282923); details: high-content imaging, actives raise or lower the signal;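 further: average cellular p53 protein immunofluorescence intensity in HepG2 cells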
The source made the active and inactive calls. How the source made its calls: active means hit-call score of the fitted dose curve at least 0.9, where 1 is the maximum; inactive means score below 0.9.
The reply should name one outcome from YES = active, NO = inactive

Record excerpt, results attached:
• O=Cc1ccco1 = NO
• O=[N+]([O-])c1ccc(Oc2ccc(Cl)cc2Cl)cc1 = NO

[ask] Hi, do you know how CN(C)c1ccc(C(=O)c2ccc(N(C)C)cc2)cc1 came out in this test?
[reply] YES

[ask] Hi, do you know how C[N+](C)(C)CC1CO1 (centres undefined) came out in this test?
[reply] NO

[ask] Hi, do you know how Cc1ccc(N)cc1 came out in this test?
[reply] NO

[ask] Hi, do you know how Clc1ccc(Cl)c(Cl)c1 came out in this test?
[reply] NO

[ask] Hi, do you know how Nc1ccc([N+](=O)[O-])cc1 came out in this test?
[reply] NO

[ask] Hi, do you know how c1ccc(NNc2ccccc2)cc1 came out in this test?
[reply] YES

[ask] Hi, do you know how CCC[CH2][Sn]([Cl])([CH2]CCC)[CH2]CCC came out in this test?
[reply] YES

[ask] Hi, do you know how Oc1ccccc1Cl came out in this test?
[reply] NO

----------
target: Luciferin 4-monooxygenase (Photinus pyralis) (UniProt P08659); experiment: CCTE_Simmons_QuantiLum_inhib_2: CCTE's Firefly Luciferase Inhibition Assay, Simmons Lab (AID 2283767)
Sequence (P08659 whole entry, looked up): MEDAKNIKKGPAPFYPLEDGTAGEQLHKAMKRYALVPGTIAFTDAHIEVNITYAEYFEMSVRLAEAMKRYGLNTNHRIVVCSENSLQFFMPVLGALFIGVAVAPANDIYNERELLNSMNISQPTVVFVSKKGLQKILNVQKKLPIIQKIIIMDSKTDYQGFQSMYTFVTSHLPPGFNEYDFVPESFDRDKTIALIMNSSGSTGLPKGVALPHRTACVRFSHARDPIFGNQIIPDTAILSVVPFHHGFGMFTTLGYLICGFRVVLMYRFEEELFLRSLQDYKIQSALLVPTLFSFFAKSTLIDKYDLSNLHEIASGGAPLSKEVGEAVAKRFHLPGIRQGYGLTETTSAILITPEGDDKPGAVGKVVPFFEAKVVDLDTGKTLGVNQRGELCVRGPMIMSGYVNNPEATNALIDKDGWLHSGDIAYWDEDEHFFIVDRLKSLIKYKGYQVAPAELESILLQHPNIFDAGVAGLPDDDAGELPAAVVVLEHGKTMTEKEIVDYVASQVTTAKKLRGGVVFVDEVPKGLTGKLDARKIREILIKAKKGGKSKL
Results filed as inconclusive are left out. Active and inactive are the calls of the source. The calls were made as follows: active = hit-call score of the fitted dose curve at least 0.9, where 1 is the maximum; inconclusive = response in the unintended direction; inactive = score below 0.9.
The reply should name one outcome from active, inactive

Record excerpt, results attached:
• CN(C)c1ccc(C(=O)c2ccc(N(C)C)cc2)cc1 = active
• Cc1cccc(N)c1N = active
• N#CC(Br)(Br)C(N)=O = inactive

[ask] Hi, do you know how CCCCOC(=O)c1ccccc1C(=O)OCc1ccccc1 came out in this test?
[reply] inactive

[ask] Hi, do you know how [Cl-].[Cl-].[Hg+2] came out in this test?
[reply] active

----------
read-out: Transforming Growth Factor (TGFA), TGFA (gene 7039); experiment: LTEA_HepaRG_TGFA: Life Technologies and Expression Analysis (LTEA) Assay for Transforming Growth Factor (TGFA) using HepaRG (AID 2283532); conditions: mRNA level, 48 h; actives raise or lower the signal
Calls of active or inactive are those of the source. How the source made its calls: active means hit-call score of the fitted dose curve at least 0.9, where 1 is the maximum; inactive means score below 0.9.
The reply should name one outcome from active, inactive

Record excerpt, results attached:
* Brc1ccc(Oc2ccccc2)cc1 | inactive
* CS(=O)(=O)NC(=O)c1cc(Oc2ccc(C(F)(F)F)cc2Cl)ccc1[N+](=O)[O-] | inactive
* CC(C)(O)c1cnn2c(-c3ccc(F)c(-c4c(F)cccc4C#N)c3)cnc2n1 | active

[ask] Hi, do you know how OCCCBr came out in this test?
[reply] inactive

[ask] Hi, do you know how Cc1ccc(N)cc1 came out in this test?
[reply] inactive

[ask] Hi, do you know how CC(C)(C)C(O)(CCc1ccc(Cl)cc1)Cn1cncn1 (stereo not drawn) came out in this test?
[reply] inactive

[ask] Hi, do you know how Cc1ccc(N=C=O)cc1N=C=O came out in this test?
[reply] inactive

[ask] Hi, do you know how CCC12COCN1COC2 came out in this test?
[reply] inactive

[ask] Hi, do you know how CC(C)(C)OOC(C)(C)CCC(C)(C)OOC(C)(C)C came out in this test?
[reply] inactive

[ask] Hi, do you know how CCN(CC)N=O came out in this test?
[reply] inactive

[ask] Hi, do you know how CCCCCCCCn1sccc1=O came out in this test?
[reply] inactive

[ask] Hi, do you know how [O-][Cl+]O came out in this test?
[reply] inactive

[ask] Hi, do you know how CCC(C)c1ccc(O)cc1 (stereo not drawn) came out in this test?
[reply] inactive
